Data provenance is patent US20240101716A1.

target: SIRPα-His protein (UniProt P78324); experiment: competition ELISA, SIRPα-His binding to coated CD47-Fc
pIC50: −log10 of the molar value.

binder	pIC50
HSP210-03-Chi (antibody, V domains shown) VH: QVQLQQSGTELVKPGSSVKISCKASGYTFTSNYIHWIRQQPGNGLEWIGWIYPGDGDTNYNQKFNGKATLTADKSSSTAYMQLSSLTSEDYAVYFCAINYGGIWFAYWGQGTLVTVSS VL: DIQMTQSPSSMSASLGDRVTITCQASQDIGNKLIWFQQKPGKSPRLMIHYVTNLPGGVPLRFSGSRSGSDYSLTISSLESEDMADYYCLQYKQNPLTFGSGTKLEIK	9.85
HSP210-01-hz32 (antibody, V domains shown) VH: QVQLQESGPGLVKPSETLSLTCTFSGFSLNTYDIGMGWIRQPPGKGLEWIAHIWWNDREYYNSALQSRVTISKDTSKTQVSLKLSSVTAADTAVYYCVRIDYFGSGQAWFTYWGQGTLVTVSS VL: EIVLTQSPGTLSLSPGERATLSCSSSSTISSTYLHWYQQKPGQAPRLLISGTSNLASGIPDRFSGSGSGTDYTLTISRLEPEDVAVYYCQQGSRIPFTFGQGTKLEIK	9.80
HSP210-03-hz32 (antibody, V domains shown) VH: QVQLVQSGAEVKKPGSSVKVSCKASGYTFTSNYIHWVRQAPGQGLEWMGWIYPGDGDTNYNQKFNGRVTLTADKSTSTAYMELSSLRSEDTAVYYCAINYGGIWFAYWGQGTLVTVSS VL: DIQMTQSPSSLSASVGDRVTITCQASQDIGNKLIWFQQKPGKAPKLLIHYVTNLPGGVPSRFSGSRSGSDYTLTISSLQPEDFATYYCLQYKQNPLTFGQGTKLEIK	9.84
HSP210-02-hz42 (antibody, V domains shown) VH: QVQLVQSGAEVKKPGASVKVSCKASGFNFEDTYMHWVRQAPGQGLEWMGRIDPAEGDTKYNPKFQDRVTITVDTSTNTAYMELSSLRSEDTAVYYCVRGNYVNWGQGTTVTVSS VL: EIVLTQSPGTLSLSPGERATLSCRASSSVSSSYLYWYQQKPGQAPRLLIYSTSNLASGIPDRFSGSGSGTDYTLTISRLEPEDAAVYFCHQWYSYPRTFGGGTKVEIK	9.92
HSP210-02-Chi (antibody, V domains shown) VH: EVQLQQSGAELVKPGASVKLSCTASGFNFEDTYMHWVKQRPDQGLEWIGRIDPADGDTKYNPKFQDKATITVDTSSNTAYLQLSSLTSEDTAVYYCVRGNYVNWGQGTTLTVSS VL: QIVLIQSPAIMSASPGERVTLTCRASSSVSSSYLYWYQQKPGSSPKLWIYSTSNLASGVPARFSGSGSGTSYSLTISSMEAEDAASYFCHQWYSYPRTFGGGTKLEIK	9.85
HSP210-01-hz61 (antibody, V domains shown) VH: QVQLQESGPGLVKPSETLSLTCTFSGFSLNTYDIGMGWIRQPPGKGLEWIAHIWWNDREYYNPALQSRVTISKDTSKTQVSLKLSSVTAADTAVYYCVRIDYFGSGQAWFTYWGQGTLVTVSS VL: EIVLTQSPGTLSLSPGERATLSCSSSSTISSTYLHWYQQKPGQAPRLLIYGTSNLASGIPDRFSGSGSGTDFTLTISRLEPEDFAVYYCQQGSRIPFTFGQGTKLEIK	9.68
HSP210-02-hz52 (antibody, V domains shown) VH: QVQLVQSGAEVKKPGASVKVSCKASGFNFEDTYMHWVRQAPGQGLEWMGRIDPADADTKYNPKFQDRVTITVDTSTNTAYMELSSLRSEDTAVYYCVRGNYVNWGQGTTVTVSS VL: EIVLTQSPGTLSLSPGERATLSCRASSSVSSSYLYWYQQKPGQAPRLLIYSTSNLASGIPDRFSGSGSGTDYTLTISRLEPEDAAVYFCHQWYSYPRTFGGGTKVEIK	9.96
HSP210-01-hz22 (antibody, V domains shown) VH: QVQLQESGPGLVKPSETLSLTCTFSGFSLNTYDIGMGWIRQPPGKGLEWIGHIWWNDREYYNSALQSRVTISKDTSKTQVSLKLSSVTAADTAVYYCVRIDYFGSGQAWFTYWGQGTLVTVSS VL: EIVLTQSPGTLSLSPGERATLSCSSSSTISSTYLHWYQQKPGQAPRLLISGTSNLASGIPDRFSGSGSGTDYTLTISRLEPEDVAVYYCQQGSRIPFTFGQGTKLEIK	9.68
